# Protocol details: physchem
# Format: physicochemical
# Experimental setup: tris buffer, hydrogen peroxide, pH 7, Stability (% Remaining) when reacted with aqueous hydrogen peroxide
Examples of molecules with documented remaining at 336 h follow.
// note: answer is a bare numeric in %

Molecule	remaining at 336 h, %
O=C1O[C@H]([C@@H](O)CO)C(O)=C1OP(=O)(O)OP(=O)(O)OP(=O)(O)O [ASTP, L-ascorbate 2-triphosphate]	55
O=C1O[C@H]([C@@H](O)CO)C(O)=C1O	0

Next:
Sample O=C1O[C@H]([C@@H](O)CO)C(O)=C1OP(=O)(O)O [ASMP, L-Ascorbate 2-phosphate] — what was its remaining at 336 h?
0

* * *

# Protocol details: in vitro
# Format: in vitro ADME, potato
# Experimental setup: potato, ph 5.0 acetate buffer, pH 5
Reported endpoint: metabolised at 20 h (%)
Respond with the bare value in %.

Compound	metabolised at 20 h (%)
O=C1O[C@H]([C@@H](O)CO)C(O)=C1OP(=O)(O)OP(=O)(O)OP(=O)(O)O [ASTP, L-ascorbate 2-triphosphate]	8.5

Consider the additional compound presented here.
Give its metabolised at 20 h value. Item: O=C1O[C@H]([C@@H](O)CO)C(O)=C1OP(=O)(O)O [ASMP, L-Ascorbate 2-phosphate]
100

* * *

Below is a list of entries, each paired with its recorded remaining at 192 h value.
# Protocol details: physchem
# Format: physicochemical
# Experimental setup: tris buffer, hydrogen peroxide, pH 7, Stability (% Remaining) when reacted with aqueous hydrogen peroxide
Give the quantity in %, number only.

Compound	remaining at 192 h (%)
O=C1O[C@H]([C@@H](O)CO)C(O)=C1O [Parent Compd, L-ascorbic acid]	0
O=C1O[C@H]([C@@H](O)CO)C(O)=C1OP(=O)(O)O [ASMP, L-Ascorbate 2-phosphate]	44

--- query ---
GET /values?readout=remaining at 192 h&item= O=C1O[C@H]([C@@H](O)CO)C(O)=C1OP(=O)(O)OP(=O)(O)OP(=O)(O)O [ASTP, L-ascorbate 2-triphosphate]
77

* * *

Quick reference: metabolised at 4 h of the listed items.
# Protocol details: in vitro
# Format: in vitro ADME, potato
# Experimental setup: potato, ph 5.0 acetate buffer, pH 5
Return type: number; implicit unit %.

Compound	Reported endpoint	Measure unit	Value observed
O=C1O[C@H]([C@@H](O)CO)C(O)=C1OP(=O)(O)O [ASMP, L-Ascorbate 2-phosphate]	metabolised at 4 h	%	88.4

What measured metabolised at 4 h goes with O=C1O[C@H]([C@@H](O)CO)C(O)=C1OP(=O)(O)OP(=O)(O)OP(=O)(O)O [ASTP, L-ascorbate 2-triphosphate] ?
0.8

* * *

# Lookup of reported metabolised at 8 h keyed by entry
# Protocol details: in vitro
# Type: in vitro ADME, potato
# Experimental setup: potato, ph 5.0 acetate buffer, pH 5
Return type: number; implicit unit %.

Molecule	Measure unit	Value observed
O=C1O[C@H]([C@@H](O)CO)C(O)=C1OP(=O)(O)OP(=O)(O)OP(=O)(O)O [ASTP, L-ascorbate 2-triphosphate]	%	3.5

Turning to the following molecule.
Recorded metabolised at 8 h of O=C1O[C@H]([C@@H](O)CO)C(O)=C1OP(=O)(O)O [ASMP, L-Ascorbate 2-phosphate] , please.
100

* * *

# Protocol details: in vitro
# Assay type: in vitro ADME, potato
# Experimental setup: potato, ph 5.0 acetate buffer, pH 5
# Description: It has also been confirmed that behavior of the 2-monophosphate ester of L-ascorbate, ASMP, towards the enzyme phosphatase is different than the behavior of the 2-triphopsphate ester, ASTP. ^1 Enzymolysis was done at 25° by stirring 200 micromoles of magnesium Lascorbate 2phosphate or ammonium Lascorbate 2triphosphate in 100 ml of 0.05 M acetate buffer (pH 5.0) containing about 400 mg of bakers' compressed yeast and 2 units of phosphatase (1 unit activity […]
Known metabolised at 1 h of a selection of molecules
Give just the number in %; leave the unit off.

Molecule	metabolised at 1 h, %
O=C1O[C@H]([C@@H](O)CO)C(O)=C1OP(=O)(O)OP(=O)(O)OP(=O)(O)O [ASTP, L-ascorbate 2-triphosphate]	0

Proceeding to the next molecule to report its metabolised at 1 h.
Fill in the blank: the reported metabolised at 1 h of O=C1O[C@H]([C@@H](O)CO)C(O)=C1OP(=O)(O)O [ASMP, L-Ascorbate 2-phosphate] is ____.
35.5

* * *

# Protocol details: in vitro
# Assay type: in vitro ADME, wheat
# Experimental setup: wheat, wheat flour suspension, pH 5
metabolised at 20 h values by entry
Only the number, expressed in %, is required.

Look at this compound and give its reported metabolised at 20 h. O=C1O[C@H]([C@@H](O)CO)C(O)=C1OP(=O)(O)O [ASMP, L-Ascorbate 2-phosphate]
100

What about O=C1O[C@H]([C@@H](O)CO)C(O)=C1OP(=O)(O)OP(=O)(O)OP(=O)(O)O [ASTP, L-ascorbate 2-triphosphate] ?
95

* * *

# Protocol details: Blank reactions without phosphatase: acid-catalyzed release of L-ascorbate in pH 5.0 acetate buffer
# Type: physicochemical
# Experimental setup: 0.05 m acetate buffer, pH 5, Table I, reaction time 2.0 h, all reagents except phosphatase, 25°, read-out: L-Ascorbate Released (%), Blank
Reported endpoint: degraded at 2 h (%)
Enter your answer as a number in %; do not include the unit.

Compound	Measure unit	degraded at 2 h
O=C1O[C@H]([C@@H](O)CO)C(O)=C1OP(=O)(O)O [ASMP, L-Ascorbate 2-phosphate]	%	2.9

As a next step, examine the compound that follows.
What measured degraded at 2 h goes with O=C1O[C@H]([C@@H](O)CO)C(O)=C1OP(=O)(O)OP(=O)(O)OP(=O)(O)O [ASTP, L-ascorbate 2-triphosphate] ?
0

* * *

# Protocol details: in vitro
# Assay type: in vitro ADME, wheat
# Experimental setup: wheat, wheat flour suspension, pH 5
Examples of compounds with documented metabolised at 0.5 h follow.
Numeric answer only, unit % assumed.

Compound	metabolised at 0.5 h (%)
O=C1O[C@H]([C@@H](O)CO)C(O)=C1OP(=O)(O)OP(=O)(O)OP(=O)(O)O [ASTP, L-ascorbate 2-triphosphate]	1.2

We next turn to a different compound, shown below.
Please give the measured metabolised at 0.5 h for this compound: O=C1O[C@H]([C@@H](O)CO)C(O)=C1OP(=O)(O)O [ASMP, L-Ascorbate 2-phosphate]
76.2

* * *

# Protocol details: Blank reactions without phosphatase: acid-catalyzed release of L-ascorbate in pH 5.0 acetate buffer
# Type: physicochemical
# Experimental setup: 0.05 m acetate buffer, pH 5, Table I, reaction time 20.0 h, all reagents except phosphatase, 25°, read-out: L-Ascorbate Released (%), Blank
Reported endpoint: degraded at 20 h (%)
Value expressed in %; do not type the unit.

Return reported degraded at 20 h; argument: O=C1O[C@H]([C@@H](O)CO)C(O)=C1OP(=O)(O)OP(=O)(O)OP(=O)(O)O [ASTP, L-ascorbate 2-triphosphate]
0

* * *

Entries and their metabolised at 4 h values follow.
# Protocol details: in vitro
# Type: in vitro ADME, wheat
# Experimental setup: wheat, wheat flour suspension, pH 5
Quick reminder: number only, in %, skip the unit.

Compound	metabolised at 4 h (%)
O=C1O[C@H]([C@@H](O)CO)C(O)=C1OP(=O)(O)O [ASMP, L-Ascorbate 2-phosphate]	100

Kindly review the next compound as well.
If you can, please state the reported metabolised at 4 h value of O=C1O[C@H]([C@@H](O)CO)C(O)=C1OP(=O)(O)OP(=O)(O)OP(=O)(O)O [ASTP, L-ascorbate 2-triphosphate] .
86.9

* * *

# Protocol details: physchem
# Type: physicochemical
# Experimental setup: tris buffer, hydrogen peroxide, pH 7, Stability (% Remaining) when reacted with aqueous hydrogen peroxide
Reported endpoint: remaining at 144 h
Your reply should be a number followed by the unit it is expressed in.

Any idea what remaining at 144 h was measured for O=C1O[C@H]([C@@H](O)CO)C(O)=C1O ?
0%

// repeat for O=C1O[C@H]([C@@H](O)CO)C(O)=C1OP(=O)(O)OP(=O)(O)OP(=O)(O)O [ASTP, L-ascorbate 2-triphosphate] and report
83.3%

Now give it for O=C1O[C@H]([C@@H](O)CO)C(O)=C1OP(=O)(O)O [ASMP, L-Ascorbate 2-phosphate] too.
64.1%

* * *

# Protocol details: Blank reactions without phosphatase: acid-catalyzed release of L-ascorbate in pH 5.0 acetate buffer
# Format: physicochemical
# Experimental setup: 0.05 m acetate buffer, pH 5, Table II, reaction time 20.0 h, blank without phosphatase (wheat flour), 25°, read-out: L-Ascorbate Released (%), Blank
Reported endpoint: degraded at 20 h (%)
Enter your answer as a number in %; do not include the unit.

Compound	Value observed
O=C1O[C@H]([C@@H](O)CO)C(O)=C1OP(=O)(O)O [ASMP, L-Ascorbate 2-phosphate]	14.5

As a next step, examine the compound that follows.
For O=C1O[C@H]([C@@H](O)CO)C(O)=C1OP(=O)(O)OP(=O)(O)OP(=O)(O)O [ASTP, L-ascorbate 2-triphosphate] , what is its reported degraded at 20 h?
0
